target_under_test: UniProt:P14902
Sequence (P14902 whole entry): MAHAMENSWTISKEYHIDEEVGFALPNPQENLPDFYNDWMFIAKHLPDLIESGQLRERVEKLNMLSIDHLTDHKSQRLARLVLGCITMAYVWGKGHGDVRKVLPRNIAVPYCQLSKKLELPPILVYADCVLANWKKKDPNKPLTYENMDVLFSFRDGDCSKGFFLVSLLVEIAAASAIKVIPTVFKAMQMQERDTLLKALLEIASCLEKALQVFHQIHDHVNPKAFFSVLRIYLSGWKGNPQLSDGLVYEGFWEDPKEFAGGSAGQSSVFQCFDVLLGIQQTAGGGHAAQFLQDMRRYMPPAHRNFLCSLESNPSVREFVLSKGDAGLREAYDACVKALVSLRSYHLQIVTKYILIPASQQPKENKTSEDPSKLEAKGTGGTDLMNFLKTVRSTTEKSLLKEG
run_description: Inhibition of human IDO1 using L-tryptophan as substrate assessed as reduction in N-formyl kynurenine formation by UV-visible spectroscopic analysis
Each entry below carries its recorded log10(IC50).
Scale type: logarithmic (base 10). Underlying IC50 unit: µM.

Solved entries:
>>> df
                                   molecule  result_number
0  CC(C)(C)CC(C)(C)Nc1c(-c2ccc(-c3ccccc3)cc2)nc2sccn12           1.67
1          CC(C)(C)Nc1c(-c2ccccc2)nc2sccn12           1.63
2  CC(C)(C)CC(C)(C)Nc1c(-c2ccc(C(F)(F)F)cc2)nc2sccn12           3.01
3          CC(C)(C)Nc1c(-c2ccncc2)nc2sccn12           2.96
4  O=S(=O)(Nc1cccc2cnccc12)c1ccc2c(c1)OCCO2          -1.25
5       COc1ccc(-c2nc3sccn3c2NC(C)(C)C)cc1O           1.11
6  O[C@H](c1c(C2CC2)c(Cl)cc2cncn12)C1CC2CCC1CC2 (some centres undefined)          -2.02
7  Cc1n[nH]c2c1[C@@H](c1ccc(F)c(F)c1)c1c(N)n[nH]c1O2          -0.82

Now, please, on to the next molecule.
Incoming: Entry CC(C)(C)Nc1c(-c2ccc(-c3ccccc3)cc2)nc2sccn12 needs its log10(IC50) filled in; supply it.
Outgoing: 1.36
